// values below are reported koff
# target.system: C. jejuni (strain 81-176) flagella (Campylobacter jejuni strain 81-176)
# method.notes: SPR (Biacore 3000), single-cycle kinetics, […]
Enter your answer as a number in s⁻¹; do not include the unit.

Solved cases (3 shown):
| binder | measurement |
| --- | --- |
| FlagV1F23M (VHH) VHH: QVQLVESGGGLVQAGGSRRLSCATSGLTFRNFHMAWFRQVAGKEREVVAAISWSRDRQYYPDPVKGRFTITRDNAKNTVYLQMNSLKPEDTAVYYCAARTASASGDWYKGSYQYWGQGTQVTVSS | 0.00426 |
| FlagV1F23MDSB (VHH) VHH: QVQLVESGGGLVQAGGSRRLSCATSGLTFRNFHMAWFRQVAGKEREVVCAISWSRDRQYYPDPVKGRFTCTRDNAKNTVYLQMNSLKPEDTAVYYCAARTASASGDWYKGSYQYWGQGTQVTVSS | 0.00286 |
| FlagV1MDSB (VHH) VHH: QVKLEESGGGLVQAGGSRRLSCATSGLTFRNFHMAWFRQVAGKEREVVCAISWSRDRQYYPDPVKGRFTCTRDNAKNTVYLQMNSLKPEDTAVYYCAARTASASGDWYKGSYQYWGQGTQVTVSS | 0.0028 |

Attention now shifts to the item below.
Specify koff for FlagV1M (VHH) VHH: QVKLEESGGGLVQAGGSRRLSCATSGLTFRNFHMAWFRQVAGKEREVVAAISWSRDRQYYPDPVKGRFTITRDNAKNTVYLQMNSLKPEDTAVYYCAARTASASGDWYKGSYQYWGQGTQVTVSS and stop.
0.00563

Attribution: patent US20180142000A1
